target.under.test: T1, NHERF3_4, Q5T2W1
T1 sequence (Q5T2W1 373-468, limits assumed, looked up): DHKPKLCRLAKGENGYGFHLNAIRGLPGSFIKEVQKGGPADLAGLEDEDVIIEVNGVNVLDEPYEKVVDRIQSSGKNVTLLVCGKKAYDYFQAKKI
assay.remarks: holdup assay
Design: key: below the threshold = too weak to quantify, mostly under pKd 3.1 to 4
applied.conditions: plain residues with an end cap or a label only (N-terminal biotin on a linker: ado-ado)
measure: pKd

As a guide, the following entries are already answered.
| binder | pKd |
| --- | --- |
| TPPAAKKSRI [BAZ1A, Q9NRL2] | below the threshold |
| YLEPVLSSEL [ATP2A2, P16615;P16615-3] | 4.8 |
| VRNLPESEEL [MYOZ3, Q8TDC0] | below the threshold |
| PRAEAEDSFL [PDGFRB, P09619] | below the threshold |
| YNNCLEILRV [DCAF7, P61962] | below the threshold |
| LKVPPEERLI [CRB2, Q5IJ48] | below the threshold |
| PEYLGLDVPV [ERBB2, P04626] | 3.59 |

Would you kindly look at the next entry?
Query block: Requested read-out: pKd. Entry: PKRSFIESNV [TANC1, Q9C0D5]
Result block: below the threshold

Taken from paper PMC9482650.
